Values compiled from ChEMBL document CHEMBL1139436.

# TARGET UNDER TEST: Nuclear factor NF-kappa-B complex (Homo sapiens) (UniProt Q00653+P19838+Q04206)
# Sequence (P19838 whole entry, looked up): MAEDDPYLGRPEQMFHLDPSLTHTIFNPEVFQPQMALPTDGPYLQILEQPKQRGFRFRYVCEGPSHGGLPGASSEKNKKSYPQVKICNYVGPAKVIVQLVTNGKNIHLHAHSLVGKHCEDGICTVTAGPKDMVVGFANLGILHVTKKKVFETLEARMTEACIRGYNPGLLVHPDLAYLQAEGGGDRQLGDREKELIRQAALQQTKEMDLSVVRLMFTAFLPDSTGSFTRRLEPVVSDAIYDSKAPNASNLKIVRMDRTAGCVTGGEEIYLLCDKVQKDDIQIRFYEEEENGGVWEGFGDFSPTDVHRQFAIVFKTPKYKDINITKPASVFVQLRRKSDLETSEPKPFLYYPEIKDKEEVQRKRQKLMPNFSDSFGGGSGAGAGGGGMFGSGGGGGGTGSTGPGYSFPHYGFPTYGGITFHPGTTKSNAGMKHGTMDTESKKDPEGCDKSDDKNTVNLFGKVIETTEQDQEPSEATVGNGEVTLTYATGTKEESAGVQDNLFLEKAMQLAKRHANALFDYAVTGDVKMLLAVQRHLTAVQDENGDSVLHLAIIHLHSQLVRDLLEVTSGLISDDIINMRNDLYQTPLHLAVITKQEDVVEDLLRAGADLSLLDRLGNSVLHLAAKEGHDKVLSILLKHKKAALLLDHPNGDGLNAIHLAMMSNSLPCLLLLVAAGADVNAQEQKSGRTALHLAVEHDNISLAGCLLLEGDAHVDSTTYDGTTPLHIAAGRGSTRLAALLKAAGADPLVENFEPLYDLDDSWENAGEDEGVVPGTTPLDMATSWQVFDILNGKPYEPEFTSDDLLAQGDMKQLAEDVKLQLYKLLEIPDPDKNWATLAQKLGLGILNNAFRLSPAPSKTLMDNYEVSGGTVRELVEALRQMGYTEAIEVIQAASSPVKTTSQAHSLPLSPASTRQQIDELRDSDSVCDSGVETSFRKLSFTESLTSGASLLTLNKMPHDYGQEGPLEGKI
# Sequence (Q00653 whole entry, looked up): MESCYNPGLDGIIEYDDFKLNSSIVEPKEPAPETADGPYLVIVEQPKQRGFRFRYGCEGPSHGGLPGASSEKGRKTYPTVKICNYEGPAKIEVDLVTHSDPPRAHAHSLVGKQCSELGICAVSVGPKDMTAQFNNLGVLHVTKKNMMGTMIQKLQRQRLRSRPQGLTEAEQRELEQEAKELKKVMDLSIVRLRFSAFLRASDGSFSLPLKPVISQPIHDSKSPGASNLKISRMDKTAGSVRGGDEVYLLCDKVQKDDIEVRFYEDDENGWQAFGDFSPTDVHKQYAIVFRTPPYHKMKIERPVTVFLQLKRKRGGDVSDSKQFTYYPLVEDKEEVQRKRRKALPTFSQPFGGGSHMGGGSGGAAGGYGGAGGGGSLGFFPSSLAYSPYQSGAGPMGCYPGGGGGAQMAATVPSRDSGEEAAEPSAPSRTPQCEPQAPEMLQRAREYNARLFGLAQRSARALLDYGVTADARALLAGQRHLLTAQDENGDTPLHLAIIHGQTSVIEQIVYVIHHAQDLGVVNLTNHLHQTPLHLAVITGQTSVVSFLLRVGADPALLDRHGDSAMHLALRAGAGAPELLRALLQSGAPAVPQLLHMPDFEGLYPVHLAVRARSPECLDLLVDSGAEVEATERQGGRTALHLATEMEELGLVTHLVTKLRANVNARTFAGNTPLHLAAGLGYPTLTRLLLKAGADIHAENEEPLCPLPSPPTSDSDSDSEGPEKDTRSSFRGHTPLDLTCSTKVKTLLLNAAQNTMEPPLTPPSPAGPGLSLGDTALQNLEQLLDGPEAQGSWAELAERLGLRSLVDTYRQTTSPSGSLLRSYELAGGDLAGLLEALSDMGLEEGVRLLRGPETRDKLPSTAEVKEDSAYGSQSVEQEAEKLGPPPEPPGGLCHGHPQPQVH
# Sequence (Q04206 whole entry, looked up): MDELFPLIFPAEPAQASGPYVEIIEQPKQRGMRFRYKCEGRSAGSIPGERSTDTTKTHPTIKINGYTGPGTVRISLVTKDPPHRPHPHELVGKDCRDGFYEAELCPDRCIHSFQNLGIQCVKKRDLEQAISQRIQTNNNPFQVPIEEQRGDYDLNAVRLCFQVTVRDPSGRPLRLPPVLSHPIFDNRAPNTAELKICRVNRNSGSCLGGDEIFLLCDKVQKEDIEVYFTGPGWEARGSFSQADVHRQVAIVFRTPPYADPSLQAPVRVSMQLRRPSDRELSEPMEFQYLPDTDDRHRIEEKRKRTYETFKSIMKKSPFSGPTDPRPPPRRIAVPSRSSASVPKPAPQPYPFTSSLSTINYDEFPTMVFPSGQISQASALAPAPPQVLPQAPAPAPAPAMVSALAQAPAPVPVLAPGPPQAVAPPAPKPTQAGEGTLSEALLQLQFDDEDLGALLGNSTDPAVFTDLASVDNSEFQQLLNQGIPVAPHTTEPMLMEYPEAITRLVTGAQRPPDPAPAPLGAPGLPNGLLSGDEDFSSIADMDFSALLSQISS
# TEST SUMMARY: Concentration required for complete inhibition of Nuclear factor kappa B DNA binding
# Assay type: protein-complex assay
Assignment: determine reported IC100 for the given compounds.
Respond numerically; units are µM and should not be typed.

Hello, I am looking for reported IC100 with Nuclear factor NF-kappa-B complex (Homo sapiens) (UniProt Q00653+P19838+Q04206) for `C=C1C(=O)O[C@@H]2[C@H]3C(C)=C(Cl)C(=O)C3=C(C)CC[C@@H]12` . Could you help?
20

Now consider `C=C(C)C(=O)O[C@@H]1/C=C(/C=O)[C@H](OC)CCC(=C)[C@H](O)[C@H]2OC(=O)C(=C)[C@@H]21` .
10

Now consider `C=C1C(=O)O[C@@H]2[C@H]3C(C)=CC(=O)C3=C(C)CC[C@@H]12` .
50

Now consider `C=C(C)C(=O)O[C@@H]1C[C@]2(C)CC[C@@](O)(O2)[C@@H](C)C[C@H]2OC(=O)C(=C)[C@H]12` .
200

Now consider `C=C(C)C(=O)O[C@H]1C/C(C)=C\[C@@]2(OC)C=C(C)[C@H](O2)[C@H]2OC(=O)C(=C)[C@@H]21` .
10

Now consider `C=C1[C@H](O)C[C@@H](O)[C@]2(C)CC[C@H]3C(=C)C(=O)O[C@@H]3[C@@H]12` .
200

Now consider `C=C1C(=O)O[C@@H]2/C=C(/COC(=O)CC(C)C)C[C@H](OC(C)=O)/C=C(/CO)C(=O)C[C@@H]12` .
12.5

Now consider `C=C1C(=O)O[C@@H]2/C=C(/CO)C3=CC(=O)[C@@](C)(C[C@@H](OC(=O)/C(C)=C/C)[C@@H]12)O3` .
5

Now consider `C=C1C(=O)O[C@H]2CC(=C)[C@H](O)CC/C(C)=C/[C@@H](O)[C@H]12` .
50

Now consider C=C1C(=O)OC2C[C@@H](C)[C@@H]3C=CC(=O)[C@@]3(C)[C@H](O)[C@H]12 (single isomer, unassigned) .
20

Now consider `C=C1C(=O)C=C2[C@H]1C[C@@H]1C(=C)C(=O)O[C@@H]1C[C@@H]2C` .
10

Now consider `C=C(C)C(=O)O[C@@H]1C[C@@]2(C)OC(=CC2=O)/C(C)=C\[C@H]2OC(=O)C(=C)[C@@H]21` .
10

Now consider `C=C(C)C(=O)O[C@H]1C[C@@]2(C)OC(=CC2=O)C(=C)[C@@H](O)[C@H]2OC(=O)C(=C)[C@@H]21` .
10

Now consider `C=C(C)C(=O)O[C@H]1/C(C=O)=C\CC/C(C)=C\[C@H]2OC(=O)C(=C)[C@@H]2[C@@H]1O` .
5

Now consider C=C1C(=O)OC2/C=C(/C)CC/C=C(/C)[C@@H](OC(C)=O)C[C@@H]12 (stereo partly specified) .
200

Now consider `C=C(C)C(=O)O[C@H]1C[C@@]2(C)OC(=CC2=O)C(=C)[C@@H](Cl)[C@H]2OC(=O)C(=C)[C@@H]21` .
5

----------
# TARGET UNDER TEST: Nuclear factor NF-kappa-B complex (Homo sapiens) (UniProt Q00653+P19838+Q04206)
# TEST SUMMARY: Concentration required for complete inhibition of Nuclear factor kappa B DNA binding
# Type: protein-complex assay
RECORDED ENDPOINT: IC100
Express the reported value numerically, then name its unit.

Hello, I am looking for reported IC100 with Nuclear factor NF-kappa-B complex (Homo sapiens) (UniProt Q00653+P19838+Q04206) for `C=C(C)C(=O)O[C@@H]1C=C(C=O)CCCC(=C)[C@H](O)[C@H]2OC(=O)C(=C)[C@@H]21` . Could you help?
10 µM

Now consider C=C1C(=O)O[C@H]2C/C(CO)=C\CC/C(COC(=O)C(C)CO)=C\C[C@H]12 (some centres not stated) .
100 µM

Now consider `C=C1C(=O)O[C@@H]2/C=C(/C)C3=CC(=O)[C@@](C)(C[C@@H](OC(=O)/C(C)=C\C)[C@@H]12)O3` .
5 µM

Now consider `C=C1C(=O)O[C@@H]2/C=C(/C)CC/C=C(/C)CC[C@@H]12` .
50 µM

Now consider `C=C1C(=O)O[C@@H]2C[C@@H](C)[C@@H]3C=CC(=O)[C@@]3(C)[C@@H](O)[C@H]12` .
10 µM

Now consider `C=C1C(=O)O[C@@H]2[C@H]3C(C)=CC[C@H]3[C@](C)(O)C[C@H](OC(C)=O)[C@@H]12` .
20 µM

Now consider `C/C=C(\C)C(=O)O[C@H]1[C@@H]2[C@H](C)C(=O)O[C@@H]2C[C@@H](C)[C@@H]2C=CC(=O)[C@]21C` .
100 µM

Now consider `C=C1C(=O)C[C@H]2C(=C)C(=O)O[C@@H]2/C=C(/COC(=O)C(C)C)CC[C@@H]1OC` .
25 µM

Now consider C=C1C(=O)O[C@H]2[C@H]1[C@H](OC(=O)C(C)C)[C@@H](OC(C)=O)/C(C=O)=C\CCC1(CO1)[C@@H]2O (some centres not stated) .
5 µM

Now consider `C=C1C(=O)O[C@@H]2C[C@H](C)C3=C(C[C@H]12)[C@@H](C)CC3=O` .
20 µM

Now consider `C=C(C)C(=O)O[C@@H]1C[C@@](C)(O)[C@@H]2C(=O)C=C(C)[C@@H]2[C@H]2OC(=O)C(=C)[C@@H]21` .
20 µM

Now consider `C=C(CO)C(=O)OC/C1=C/C[C@@H]2C(=C)C(=O)O[C@H]2C/C(CO)=C\CC1` .
20 µM

Now consider `C=C1[C@@H]2[C@H]3OC(=O)C(=C)[C@@H]3CC[C@](C)(O)[C@@H]2C[C@@H]1O` .
200 µM

Now consider `C=C1[C@@H]2[C@H]3OC(=O)C(=C)[C@@H]3CCC(=C)[C@@H]2C[C@@H]1OC(C)=O` .
100 µM

Now consider `C=C(C)C(=O)O[C@H]1[C@H]2C(=C)C(=O)O[C@@H]2[C@@H](O)C(=C)CC/C=C(/C=O)[C@@H]1OC(C)=O` .
10 µM

Now consider `C=C1C(=O)O[C@@H]2C[C@H](C)C3=CC(=O)[C@H](C)[C@@H]3C[C@H]12` .
50 µM

Now consider `C=C1[C@H](O)C[C@H](O)[C@]2(C)CC[C@H]3C(=C)C(=O)O[C@@H]3[C@@H]12` .
100 µM

----------
# TARGET UNDER TEST: Nuclear factor NF-kappa-B complex (Homo sapiens) (UniProt Q00653+P19838+Q04206)
# TEST SUMMARY: Concentration required for complete inhibition of Nuclear factor kappa B DNA binding
# Type: protein-complex assay
RECORDED ENDPOINT: IC100 (µM)
Respond numerically; units are µM and should not be typed.

Hello, I am looking for reported IC100 with Nuclear factor NF-kappa-B complex (Homo sapiens) (UniProt Q00653+P19838+Q04206) for `C=C(C)C(=O)O[C@@H]1/C=C(\C=O)CCC[C@@]2(CO2)[C@H](O)[C@H]2OC(=O)C(=C)[C@@H]21` . Could you help?
5

Now consider `CC(=O)O[C@H]1[C@@H]2[C@H](C)C(=O)O[C@@H]2C[C@@H](C)[C@@H]2C=CC(=O)[C@]21C` .
200

Now consider `C=C1C(=O)O[C@@H]2[C@H]3C(C)=CC(=O)C3=C(C)C[C@@H](OC(=O)[C@]3(C)O[C@@H]3C)[C@@H]12` .
20

Now consider `C=C1C(=O)C=C2[C@H]1C[C@@H]1C(=C)C(=O)O[C@H]1C[C@@H]2C` .
5

Now consider `C=C(C)C(=O)O[C@H]1C[C@@]2(C)OC(=CC2=O)/C(CO)=C\[C@H]2OC(=O)C(=C)[C@H]12` .
20

Now consider C=C1C(=O)O[C@@H]2/C=C(/COC(=O)CC(C)C)CC/C=C(/CO)C(=O)C[C@@H]12 (stereo in doubt; 3) .
12.5

Now consider `C=C1C(=O)O[C@@H]2C3=C(C(=O)C[C@@H]3C)[C@@H](C)CC[C@@H]12` .
20

Now consider `C=C1C(=O)O[C@@H]2/C=C(/C)CC/C=C(/C)C[C@@H](OC(=O)C=C(CO)CO)[C@@H]12` .
20

Now consider `C=C1C(=O)O[C@H]2C[C@]3(C)O[C@@H]3C[C@@H](OC(C)=O)C3=C[C@@H](OC3=O)[C@H]12` .
10

Now consider `C=C1C(=O)O[C@H]2[C@H]1CCC(C)=C1C(=O)[C@H]3O[C@@]3(C)[C@@H]12` .
5

Now consider `C=C1C(=O)O[C@H]2C/C(CO)=C\CC/C(COC(=O)C(C)C)=C\C[C@H]12` .
50

Now consider `C=C(C)C(=O)O[C@H]1/C(C=O)=C\CC/C(COC(C)=O)=C\[C@H]2OC(=O)C(=C)[C@@H]2[C@@H]1O` .
5

Now consider C=C1C(=O)O[C@H]2C[C@H](C)C3=CC(=O)[C@H](C)C3C[C@H]12 (stereo partly drawn) .
20

Now consider `C=C1C(=O)O[C@H]2[C@H]1[C@H](OC(=O)[C@@]1(C)O[C@H]1C)[C@@H](OC(C)=O)/C(C(=O)OC)=C\CC[C@@]1(C)O[C@@H]21` .
10

Now consider `C=C(C)C(=O)O[C@@H]1C[C@]2(C)CC[C@@](O)(O2)/C(C)=C\[C@H]2OC(=O)C(=C)[C@@H]21` .
50

Now consider C=C1C(=O)O[C@H]2C/C(CO)=C\CC/C(COC(=O)C(C)CC)=C\C[C@H]12 (stereo partly drawn) .
50

Now consider `C=C1C(=O)O[C@H]2[C@H]1[C@@H](OC(=O)/C(C)=C/C)C/C(C)=C/C(=O)/C=C(/C)[C@@H]2O` .
10

Now consider `C=C1C(=O)O[C@@H]2[C@H]3C(CO)=CC(=O)C3=C(C)CC[C@@H]12` .
50

Now consider `C=C1C(=O)O[C@@H]2C[C@@H](C)[C@@H]3C=CC(=O)[C@@]3(C)[C@@H](OC(=O)C(C)C)[C@H]12` .
20

Now consider `C=C1C(=O)C[C@H]2C(=C)C(=O)O[C@@H]2/C=C(/COC(=O)CC(C)C)CC[C@H]1OC` .
12.5

Now consider `C=C(C)C(=O)O[C@H]1[C@H]2C(=C)C(=O)O[C@@H]2/C=C(/C)CC/C=C(/C=O)[C@@H]1O` .
10

Now consider `C=C1C[C@@H]2OC(=O)C(=C)[C@H]2[C@H](O)/C=C(\C)CCC1=O` .
50

Now consider `C=C1C(=O)O[C@@H]2/C=C(/CO)C3=CC(=O)[C@@](C)(C[C@H](OC(=O)/C(C)=C/C)[C@@H]12)O3` .
5

Now consider `C=C(C)C(=O)O[C@H]1[C@H]2C(=C)C(=O)O[C@@H]2[C@H]2O[C@]2(C)CC/C=C(/C=O)[C@@H]1O` .
10

Now consider `C=C(C)C(=O)O[C@@H]1/C=C(/C=O)CCCC(=C)[C@H](O)[C@H]2OC(=O)C(=C)[C@@H]21` .
5

Now consider `C[C@@H]1C[C@H]2OC(=O)[C@@H](C)[C@H]2[C@H](O)[C@]2(C)C(=O)C=C[C@@H]12` .
200

Now consider `C=C1C(=O)O[C@@H]2/C=C(/C)C3=CC(=O)[C@@](C)(C[C@@H](OC(=O)/C(C)=C/C)[C@@H]12)O3` .
5

Now consider `C=C1C(=O)O[C@H]2/C=C(\C)[C@@H](O)CC/C(C)=C/C[C@H]12` .
200

Now consider `C=C1C(=O)O[C@@H]2C[C@@H](C)[C@@H]3CCC(=O)[C@@]3(C)C[C@H]12` .
50

Now consider `C=C1C(=O)O[C@@H]2C[C@@]3(C)[C@H](O)CC[C@](O)(COC(=O)C(C)C)[C@@H]3C[C@H]12` .
200

Now consider `C=C1C(=O)O[C@@H]2/C=C(/COC(=O)C(C)C)CC/C=C(/CO)C(=O)C[C@@H]12` .
12.5

Now consider `C=C(C)C(=O)O[C@H]1C/C(C)=C/C(=O)/C=C(/C)[C@H](O)[C@H]2OC(=O)C(=C)[C@@H]21` .
10

Now consider `C=C1C(=O)C[C@H]2C(=C)C(=O)O[C@@H]2/C=C(/COC(=O)C(C)C)CC[C@H]1OC` .
25
